Target: NMDA receptor composed of four subunits including 2 sets of heterodimers of NR1 and NR2B (Homo sapiens, UniProt Q13224)
Construct: host or cells: HEK293 (tetracycline-induced expression)
Sequence (Q13224 27-1484, other chains not shown): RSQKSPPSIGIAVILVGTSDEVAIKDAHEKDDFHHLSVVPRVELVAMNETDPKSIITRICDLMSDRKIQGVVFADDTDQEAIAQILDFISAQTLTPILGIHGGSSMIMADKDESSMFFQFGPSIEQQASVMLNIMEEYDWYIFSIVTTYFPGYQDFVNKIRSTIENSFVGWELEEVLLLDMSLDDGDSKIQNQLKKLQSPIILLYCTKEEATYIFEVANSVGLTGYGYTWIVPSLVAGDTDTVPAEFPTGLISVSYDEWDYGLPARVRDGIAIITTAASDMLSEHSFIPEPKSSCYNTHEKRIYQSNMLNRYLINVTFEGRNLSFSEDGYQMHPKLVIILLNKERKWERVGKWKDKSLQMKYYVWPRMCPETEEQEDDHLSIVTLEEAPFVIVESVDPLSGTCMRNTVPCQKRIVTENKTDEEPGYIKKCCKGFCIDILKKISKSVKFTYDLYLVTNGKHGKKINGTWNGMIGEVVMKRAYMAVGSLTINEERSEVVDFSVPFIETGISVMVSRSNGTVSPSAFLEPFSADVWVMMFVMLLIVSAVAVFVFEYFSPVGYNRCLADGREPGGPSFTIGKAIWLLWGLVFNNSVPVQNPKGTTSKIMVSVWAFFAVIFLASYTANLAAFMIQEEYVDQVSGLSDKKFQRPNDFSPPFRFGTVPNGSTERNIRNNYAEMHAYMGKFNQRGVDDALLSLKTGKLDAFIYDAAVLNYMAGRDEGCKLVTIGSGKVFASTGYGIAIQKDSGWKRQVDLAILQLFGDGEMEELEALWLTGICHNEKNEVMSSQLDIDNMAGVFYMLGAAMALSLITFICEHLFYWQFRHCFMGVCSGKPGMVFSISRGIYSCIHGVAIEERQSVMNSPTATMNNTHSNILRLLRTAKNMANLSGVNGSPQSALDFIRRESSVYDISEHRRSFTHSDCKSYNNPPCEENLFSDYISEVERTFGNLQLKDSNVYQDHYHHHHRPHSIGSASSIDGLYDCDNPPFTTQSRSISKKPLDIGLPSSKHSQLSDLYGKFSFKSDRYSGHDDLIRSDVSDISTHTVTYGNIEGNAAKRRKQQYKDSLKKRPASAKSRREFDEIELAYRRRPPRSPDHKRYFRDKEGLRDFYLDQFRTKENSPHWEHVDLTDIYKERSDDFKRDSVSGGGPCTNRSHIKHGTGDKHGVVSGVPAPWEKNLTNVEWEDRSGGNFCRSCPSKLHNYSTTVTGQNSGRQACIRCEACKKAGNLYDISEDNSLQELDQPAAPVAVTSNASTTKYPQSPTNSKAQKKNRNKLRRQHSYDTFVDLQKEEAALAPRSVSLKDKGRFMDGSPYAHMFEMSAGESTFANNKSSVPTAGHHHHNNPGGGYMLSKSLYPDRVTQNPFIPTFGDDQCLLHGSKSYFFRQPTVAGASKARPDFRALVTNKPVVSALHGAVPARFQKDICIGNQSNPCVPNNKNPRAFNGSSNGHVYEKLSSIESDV
Assay: NR2B Ca2+ influx assay (FLIPR, Fluo-4) in HEK293 cells expressing human GRIN1 and GRIN2B
Type: cell-based
Conditions: HEK293, 10 μM final compound concentration, glutamic acid/glycine-induced Ca2+ influx, read-out: inhibitory rate (10 μM compound concentration)
Where a name gives a salt, the structure may show the parent alone.
readout name: inhibition at 10 µM (%)

// worked examples, inhibition at 10 µM included
[in] Identify the reported inhibition at 10 µM for the following entry. COc1ccc(C(=O)NCc2c(C3CC3)ccc3[nH]ncc23)cc1Cl
[out] 93

[in] Identify the reported inhibition at 10 µM for the following entry. COc1ccc2nc(C)n(C)c2c1CNC(=O)c1cc(F)c(C(F)F)c(F)c1
[out] 53

[in] Identify the reported inhibition at 10 µM for the following entry. CCc1ccc2ncn(C)c2c1CNC(=O)c1ccc(C(F)F)c(F)c1
[out] 90

[in] Identify the reported inhibition at 10 µM for the following entry. COc1ccc2ncn(C)c2c1CNC(=O)c1ccc(C(F)(F)F)s1 [Example 162, hydrochloride]
[out] 92

[in] Identify the reported inhibition at 10 µM for the following entry. COc1ccc2ncn(C)c2c1CNC(=O)c1csc(C)c1
[out] 82

[in] Identify the reported inhibition at 10 µM for the following entry. Cc1ccc2[nH]nnc2c1CNC(=O)c1cc(F)c(C(F)(F)F)c(F)c1
[out] 91

I: COc1ccc(C(=O)NCc2c(C)ccc3[nH]nnc23)cc1
II: O=C(NCc1cccc2[nH]ncc12)c1ccc(C(F)F)cc1
[in] Between the two listed entries I and II , which has its inhibition at 10 µM at the higher number? Please identify the chosen entry by its label.
[out] I
(I: 83%, II: 52%)

###

Target: NMDA receptor composed of four subunits including 2 sets of heterodimers of NR1 and NR2B (Homo sapiens, UniProt Q13224)
Construct: host or cells: HEK293 (tetracycline-induced expression)
Experiment: NR2B Ca2+ influx assay (FLIPR, Fluo-4) in HEK293 cells expressing human GRIN1 and GRIN2B
Format: cell-based
Settings: HEK293, 10 μM final compound concentration, glutamic acid/glycine-induced Ca2+ influx, read-out: inhibitory rate (10 μM compound concentration)
readout name: inhibition at 10 µM (%)

// worked examples, inhibition at 10 µM included
[in] Identify the reported inhibition at 10 µM for the following entry. COc1ccc2nc(C)n(C)c2c1CNC(=O)c1ccc(Cl)c(F)c1
[out] 64

[in] Identify the reported inhibition at 10 µM for the following entry. COc1ccc2ncn(C)c2c1CNC(=O)c1ccc(C(F)F)c(F)c1
[out] 90

[in] Identify the reported inhibition at 10 µM for the following entry. COc1c(F)cc(C(=O)NCc2c(C3CC3)ccc3ncn(C)c23)cc1F
[out] 91

[in] Identify the reported inhibition at 10 µM for the following entry. O=C(NCc1c(C2CC2)ccc2[nH]nnc12)c1cnc(OC(F)F)c(F)c1
[out] 94

[in] Identify the reported inhibition at 10 µM for the following entry. COCc1ccc2ncn(C)c2c1CNC(=O)c1csc(C(F)(F)F)c1
[out] 76

[in] Identify the reported inhibition at 10 µM for the following entry. CCOc1ccc2ncn(C)c2c1CNC(=O)c1ccc(C(F)(F)F)cc1
[out] 91

[in] Identify the reported inhibition at 10 µM for the following entry. Cc1ccc2ncn(C)c2c1CNC(=O)c1ccc(OC(F)(F)F)c(F)c1
[out] 90

A: COc1ccc2ncn(C)c2c1CNC(=O)c1ccc(C(F)(F)F)c(Cl)c1
B: O=C(NCc1cccc2[nH]ncc12)c1ccc(C(F)(F)F)s1
[in] I'm curious whether A or B has the smaller inhibition at 10 µM number. Which is it? Please identify the chosen entry by its label.
[out] B
(B: 58%, A: 90%)

###

Target: NMDA receptor composed of four subunits including 2 sets of heterodimers of NR1 and NR2B (Homo sapiens)
Construct: host or cells: HEK293 (tetracycline-induced expression)
Assay: NR2B Ca2+ influx assay (FLIPR, Fluo-4) in HEK293 cells expressing human GRIN1 and GRIN2B
Format: cell-based
Details: HEK293, 10 μM final compound concentration, glutamic acid/glycine-induced Ca2+ influx, read-out: inhibitory rate (10 μM compound concentration)
readout name: inhibition at 10 µM (%)

// worked examples, inhibition at 10 µM included
[in] Identify the reported inhibition at 10 µM for the following entry. Cc1n[nH]c2cccc(CNC(=O)c3cnc(OC(F)F)c(F)c3)c12 [Example 271]
[out] 82

[in] Identify the reported inhibition at 10 µM for the following entry. COc1ccc2ncn(C)c2c1CNC(=O)Cc1cccs1 [Example 33]
[out] 86

[in] Identify the reported inhibition at 10 µM for the following entry. COc1ccc2ncn(C)c2c1CNC(=O)c1cc(F)c(Cl)c(F)c1 [Example 15]
[out] 95

A: COc1cc(C(=O)NCc2c(OC)ccc3ncn(C)c23)ccc1F [Example 46]
B: COc1ccc2[nH]nnc2c1CNC(=O)c1cc(F)c(OC)c(F)c1 [Example 207]
[in] I'm curious whether A or B has the smaller inhibition at 10 µM number. Which is it? Please identify the chosen entry by its label.
[out] A

a: COc1ccc2[nH]ncc2c1CNC(=O)c1ccc(OC(F)(F)F)cc1 [Example 6]
b: Cc1ccc(C(=O)NCc2cccc3[nH]ncc23)cc1F [Example 176]
[in] Between the two listed entries a and b , which has its inhibition at 10 µM at the higher number? Please identify the chosen entry by its label.
[out] a
(a: 91%, b: 51%)

###

Target: NMDA receptor composed of four subunits including 2 sets of heterodimers of NR1 and NR2B (Homo sapiens, UniProt Q13224)
Construct: host or cells: HEK293 (tetracycline-induced expression)
Assay: NR2B Ca2+ influx assay (FLIPR, Fluo-4) in HEK293 cells expressing human GRIN1 and GRIN2B
Format: cell-based
Conditions: HEK293, 10 μM final compound concentration, glutamic acid/glycine-induced Ca2+ influx, read-out: inhibitory rate (10 μM compound concentration)
readout name: inhibition at 10 µM (%)

// worked examples, inhibition at 10 µM included
[in] Identify the reported inhibition at 10 µM for the following entry. Cc1ccc2[nH]nnc2c1CNC(=O)c1ccc(OC(F)F)c(F)c1
[out] 98

[in] Identify the reported inhibition at 10 µM for the following entry. COc1ccc2ncn(C)c2c1CNC(=O)Nc1ccc(C(F)(F)F)c(F)c1
[out] 92

[in] Identify the reported inhibition at 10 µM for the following entry. COc1ccc2ncn(C)c2c1CNC(=O)c1csc(C(F)F)c1
[out] 92

[in] Identify the reported inhibition at 10 µM for the following entry. Cc1ccc2ncn(C)c2c1CNC(=O)c1ccc(OC(F)(F)F)nc1
[out] 88

a: CCc1ccc2ncn(C)c2c1CNC(=O)c1cnc(OC)c(F)c1
b: COc1ccc2nc(C)n(C)c2c1CNC(=O)c1ccc(C(F)(F)F)c(F)c1
[in] Between the two listed entries a and b , which has its inhibition at 10 µM at the higher number? Please identify the chosen entry by its label.
[out] a
(a: 90%, b: 59%)

###

Molecular target: NMDA receptor composed of four subunits including 2 sets of heterodimers of NR1 and NR2B (Homo sapiens, UniProt Q13224)
Construct: host or cells: HEK293 (tetracycline-induced expression)
Assay: NR2B Ca2+ influx assay (FLIPR, Fluo-4) in HEK293 cells expressing human GRIN1 and GRIN2B
Format: cell-based
Settings: HEK293, 10 μM final compound concentration, glutamic acid/glycine-induced Ca2+ influx, read-out: inhibitory rate (10 μM compound concentration)
readout name: inhibition at 10 µM (%)

a: COc1ccc2ncn(C)c2c1CNC(=O)Nc1ccc(F)cc1 [Example 224]
b: O=C(NCc1cccc2[nH]ncc12)c1cc(F)c(F)c(Cl)c1 [Example 188]
[in] I'm curious whether a or b has the smaller inhibition at 10 µM number. Which is it? Please identify the chosen entry by its label.
[out] b

###

Target: NMDA receptor composed of four subunits including 2 sets of heterodimers of NR1 and NR2B (Homo sapiens, UniProt Q13224)
Construct: host or cells: HEK293 (tetracycline-induced expression)
Test: NR2B Ca2+ influx assay (FLIPR, Fluo-4) in HEK293 cells expressing human GRIN1 and GRIN2B
Type: cell-based
Conditions: HEK293, 10 μM final compound concentration, glutamic acid/glycine-induced Ca2+ influx, read-out: inhibitory rate (10 μM compound concentration)
readout name: inhibition at 10 µM (%)

[in] Identify the reported inhibition at 10 µM for the following entry. COc1ccc2ncn(C)c2c1CNC(=O)c1ccc(C)cc1 [Example 114]
[out] 87

1: CCc1ccc2ncn(C)c2c1CNC(=O)c1ccc(C(F)F)cc1 [Example 133]
2: COc1ccc2nc(C)n(C)c2c1CNC(=O)c1ccc(Cl)s1 [Example 229]
[in] Between the two listed entries 1 and 2 , which has its inhibition at 10 µM at the higher number? Please identify the chosen entry by its label.
[out] 1
(1: 91%, 2: 62%)
